In this section, each of the molecules is paired with its reported Km.
System: tRNA
Assay: Aminoacylation assay (tRNA charging)
Assay type: biochemical
Condition: nsAA pAcF

- Molecule: "pAcFRS.1.t1: pAcFRS variant A167D, R257G, SEQ ID NO: 5 (protein) MDEFEMIKRNTSEIISEEELREVLKKDEKSALIGFEPSGKIHLGHYLQIKKMIDLQNAGFDIIILLADLHAYLNQKGELDEIRKIGDYNKKVFEAMGLKAKYVYGSEFQLDKDYTLNVYRLALKTTLKRARRSMELIAREDENPKVAEVIYPIMQVNGCHYRGVDVDVGGMEQRKIHMLARELLPKKVVCIHNPVLTGLDGEGKMSSSKGNFIAVDDSPEEIRAKIKKAYCPAGVVEGNPIMEIAKYFLEYPLTIKGPEKFGGDLTVNSYEELESLFKNKELHPMRLKNAVAEELIKILEPIRKRL"
  Km / µM: 16
- Molecule: "pAcFRS.1: pAcFRS variant A167D, SEQ ID NO: 2 (protein) MDEFEMIKRNTSEIISEEELREVLKKDEKSALIGFEPSGKIHLGHYLQIKKMIDLQNAGFDIIILLADLHAYLNQKGELDEIRKIGDYNKKVFEAMGLKAKYVYGSEFQLDKDYTLNVYRLALKTTLKRARRSMELIAREDENPKVAEVIYPIMQVNGCHYRGVDVDVGGMEQRKIHMLARELLPKKVVCIHNPVLTGLDGEGKMSSSKGNFIAVDDSPEEIRAKIKKAYCPAGVVEGNPIMEIAKYFLEYPLTIKRPEKFGGDLTVNSYEELESLFKNKELHPMRLKNAVAEELIKILEPIRKRL"
  Km / µM: 36
